Data origin: the supplement of paper PMC11196671

Each item that follows carries a reported terephthalic acid.
- ASSAY_EXPLANATION: terephthalic acid (TPA) released, HPLC; higher = more TPA released; extreme values may be limits of the assay
- SETUP_CONDITIONS: PET substrate: aFilm; 70 °C; pH 5.5; 24 h
Please give a number only; it is taken to be in mM.

Notebook: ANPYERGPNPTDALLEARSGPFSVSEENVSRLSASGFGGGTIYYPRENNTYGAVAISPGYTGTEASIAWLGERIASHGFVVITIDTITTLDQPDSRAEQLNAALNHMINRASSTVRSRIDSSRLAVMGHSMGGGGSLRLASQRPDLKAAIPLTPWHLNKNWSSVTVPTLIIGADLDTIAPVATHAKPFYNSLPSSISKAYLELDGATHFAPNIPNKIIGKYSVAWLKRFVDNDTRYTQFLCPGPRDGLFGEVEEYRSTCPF [TfCut2] , terephthalic acid read as 0

Summary for this sequence, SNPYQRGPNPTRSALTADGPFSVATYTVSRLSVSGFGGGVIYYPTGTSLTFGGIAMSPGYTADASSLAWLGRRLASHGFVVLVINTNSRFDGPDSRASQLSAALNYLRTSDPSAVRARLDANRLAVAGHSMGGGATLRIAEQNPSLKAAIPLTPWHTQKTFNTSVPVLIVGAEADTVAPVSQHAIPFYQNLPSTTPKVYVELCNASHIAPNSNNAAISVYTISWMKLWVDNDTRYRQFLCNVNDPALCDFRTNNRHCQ [LCC-ICCG DAQI] : terephthalic acid is 0.165

---
Lab note: measured terephthalic acid of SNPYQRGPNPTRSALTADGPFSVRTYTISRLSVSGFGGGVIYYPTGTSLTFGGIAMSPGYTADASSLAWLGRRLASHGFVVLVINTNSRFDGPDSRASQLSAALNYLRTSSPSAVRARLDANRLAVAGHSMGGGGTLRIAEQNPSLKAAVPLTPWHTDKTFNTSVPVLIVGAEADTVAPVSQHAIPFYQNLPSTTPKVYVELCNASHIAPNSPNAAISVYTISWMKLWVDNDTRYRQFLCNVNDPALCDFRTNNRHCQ [LCC-ICCG RIP] was 0.255
